- TARGET OR TEST SYSTEM: GST-SBP-SLBP (stem-loop binding protein) (Homo sapiens, UniProt Q14493 1-270)
- EXPERIMENT SUMMARY: targeted RNA Bind-n-Seq; RBNS binding buffer: 25 mM Tris pH 7.5, 150 mM KCl, 3 mM MgCl2, 0.1% Tween, 0.5 mg/mL BSA, 1 mM DTT; 27 nM protein, 750 pM RNA pool; temperature not stated; high values mean tight binding
- STATED CONDITIONS: protein: recombinant; tags: N-terminal GST and SBP (pGEX6P1-SBP); structured_RNA
The full ranking holds about 11,000 sequences; the median of “log2 fold change” is about 0.00022, and the highest 2% start at about 0.34. Some of the results follow.
Parameter: binding signal. Scope: all listed entries.
Unit log2 fold change implied. Number only.

Would you please look over these solved cases?
{"SEQUENCE TEXT": "GGUCACGUCUCAAUCAACUCUAUCUCAGGAGUUUACUCCUGUAUAUUCAACAGCUCGCAGUCAAG", "TARGET OR TEST SYSTEM": "GST-SBP-SLBP (stem-loop binding protein) (Homo sapiens, UniProt Q14493 1-270)", "binding signal (log2 fold change)": 0.337}
{"SEQUENCE TEXT": "GGUCACGUCUCAAUCAACUCCAAAGAGGGGGGGAAAACCCCUUUACCCUCAUCUUCAACAGCUCGCAGUCAAG", "TARGET OR TEST SYSTEM": "GST-SBP-SLBP (stem-loop binding protein) (Homo sapiens, UniProt Q14493 1-270)", "binding signal (log2 fold change)": 0.443}
{"SEQUENCE TEXT": "GGUCACGUCUCAAUCAACUCCAAAGAGGGGGGGAAAACCCCUUUGCCCUCAUUCUCAACAGCUCGCAGUCAAG", "TARGET OR TEST SYSTEM": "GST-SBP-SLBP (stem-loop binding protein) (Homo sapiens, UniProt Q14493 1-270)", "binding signal (log2 fold change)": 0.342}

Next item in the queue.
Given the entry GGUCACGUCUCAAUCAACUCCCAAGAGGGGGGGAAAACCCCUUUACCCUCGUAAUCAACAGCUCGCAGUCAAG , what binding signal was observed with GST-SBP-SLBP (stem-loop binding protein) (Homo sapiens, UniProt Q14493 1-270)?
0.444

====

- TARGET OR TEST SYSTEM: GST-SBP-SLBP (stem-loop binding protein) (Homo sapiens, UniProt Q14493 1-270)
- EXPERIMENT SUMMARY: targeted RNA Bind-n-Seq; RBNS binding buffer: 25 mM Tris pH 7.5, 150 mM KCl, 3 mM MgCl2, 0.1% Tween, 0.5 mg/mL BSA, 1 mM DTT; 27 nM protein, 750 pM RNA pool; temperature not stated; high values mean tight binding
- STATED CONDITIONS: protein: recombinant; tags: N-terminal GST and SBP (pGEX6P1-SBP); structured_RNA
Whole data set: some 11,000 sequences, median “log2 fold change” near 0.00022, cut for the highest 2% near 0.34. The list shows a part of the results.
Parameter: binding signal. Scope: all listed entries.
Write the quantity with the unit trailing the number.

// returns reported binding signal for input GGUCACGUCUCAAUCAACUCCUAAGAGGGGGGGAAAACCCCUUUACCCUCACUAUCAACAGCUCGCAGUCAAG
0.433 log2 fold change
